For each of the compounds below, state its melting point.

# batch size: 4; output melting point per entry
1. CC(C)c1nn(-c2ccccc2)cc1C(=O)O
2. CC(C)(C)n1nc(C(=O)O)cc1C1CC1
3. O=C1OCCN1c1ccc(Cl)c([N+](=O)[O-])c1
4. O=C(CC(=O)C(F)F)c1ccco1

Response line:
["169 to 171 °C", "119 to 121 °C", "163 to 165 °C", "39 to 41 °C"]

Dear reader, for each entry below, please note its melting point.
1. CS(=O)(=O)Cc1ccc(F)cc1CN
2. O=C(Nc1ccco1)OCC(F)(F)F
3. COc1cc(C(=O)O)ccc1OCc1c(C)noc1C

Response line:
1. 77 to 79 °C
2. 78 to 80 °C
3. 216 to 218 °C

Lab note: each compound below needs its melting point filled in.
1. N#Cc1cccnc1N1CCCC1
2. O=Cc1ccc(Oc2ccc(Cl)cc2[N+](=O)[O-])cc1
3. COc1ccc(C(O)C2CC2)c(C)c1 (stereo not drawn)

Response line:
1: 36 to 38 °C; 2: 69 to 71 °C; 3: 39 to 41 °C

List melting point for every entry below, keeping the order given.
1. CCOCCS(=O)(=O)NCC(=O)O
2. Cc1nn(C)c2c1NCCS2(=O)=O

Response line:
63 to 65 °C
110 to 112 °C

Prompt line: Please supply the value of reported melting point for the item CC1(c2ccc(Cl)c(Cl)c2)NC(=O)NC1=O (stereo not drawn)
Response line: 203 to 207 °C

----------
Can you tell me melting point for the items I'm about to list?

The cases that follow already have their melting point on record.
[[record]]
compound = "O=C(O)C(Cc1ccccc1)NC(=O)C12CC3CC(CC(C3)C1)C2 (stereo unspecified)"
result = "162 to 164 °C"

[[record]]
compound = "CN1C(=O)c2ccc(C(=O)O)cc2S1(=O)=O"
result = "249 to 251 °C"

[[record]]
compound = "O=C(O)CCN1C(=O)CCC1=O"
result = "131 to 133 °C"


Each compound below has a recorded value; state its melting point.
1. Cc1nc(S)nc(O)c1C
2. Cc1nn(C)c(C)c1CC(=O)N1CCC(C(=O)O)CC1
3. CCC(Nc1nc(C)cs1)C(=O)O (stereo unspecified)
4. CCOc1ccc(NS(=O)(=O)c2ccc(N)cc2)cc1
5. Nc1cnc(C2CC2)nc1
6. OC1CNc2c(ccc3ccccc23)C1 (stereo unspecified)
7. COc1ccccc1NS(=O)(=O)c1cccc(N)c1

Response line:
["276 to 278 °C", "167 to 169 °C", "173 to 175 °C", "145 to 147 °C", "169 to 171 °C", "144 to 146 °C", "35 to 37 °C"]

Could you report melting point for every entry in the following list?
1. C=CC(=O)NCc1ccc(F)cc1
2. Cc1ccccc1Nc1nc(N)nc(CCl)n1
3. Cc1nc(=O)c2cnn(-c3ccc([N+](=O)[O-])cc3)c2[nH]1
4. Fc1ccccc1-n1cnnc1S
5. CCC(C)Oc1ccccc1C=CC(=O)O (stereo unspecified)

Response line:
1: 118 to 120 °C; 2: 203 to 207 °C; 3: 341 to 343 °C; 4: 167 to 169 °C; 5: 83 to 85 °C

Could you tell me melting point for each of these compounds? They are listed below.
1. O=C(O)c1ccc(Br)c(S(=O)(=O)Cl)c1
2. O=C1C=CC(=O)N1CCCN1CCOCC1
3. CCOC(=O)c1c(-c2ccccc2Cl)csc1N

Response line:
181 to 183 °C
39 to 41 °C
65 to 73 °C
